Tested on: Rattus norvegicus
EXPERIMENT SUMMARY: Antibone resorptive activity in Sprague-Dawley rat assessed as inhibition of cathepsin K-mediated C-terminal telopeptidase of type 1 collagen degradation at 100 mg/kg/day, po for 11 days measured on 24 hrs after final administration by RatLaps ELISA
Assay type: functional
Design: scale not given: the % may be the effect or the level left
Assign labels as follows, please: 1 for Activity below 70%; 0 for Activity equal to or exceeding 70%.

>>> label("CC(C)(C)Cn1c(CN2C(=O)C3(CCNCC3)c3cc(F)ccc32)cc2cnc(C#N)nc21")
1
>>> label("CCCN1C(=O)NC2(CCN(Cc3cc4cnc(C#N)nc4n3CC(C)(C)C)CC2)C1=O")
1
>>> label("CC(C)(C)Cn1c(CN2CCC3(CC2)NC(=O)NC3=O)cc2cnc(C#N)nc21")
1
>>> label("CN1C(=O)NC2(CCN(Cc3cc4cnc(C#N)nc4n3CC(C)(C)C)CC2)C1=O")
1
>>> label("CC(C)(C)Cn1c(CN2C(=O)CC3(CCNCC3)C2=O)cc2cnc(C#N)nc21")
0
>>> label("CCCN1CCC2(CC1)NC(=O)N(Cc1cc3cnc(C#N)nc3n1CC(C)(C)C)C2=O")
0
